TGT: T1, His-tagged cynomolgus monkey CD38 (ACRO Biosystems, CD8-05223 [sic]) (cynomolgus monkey, UniProt Q5VAN0 43-301)
T1 construct: bought protein; used for ELISA coating and as SPR analyte; not shown: His tag
PROTOCOL DESCRIPTION: SPR (second run), His-tagged CD38
EXPERIMENTAL ENDPOINT: pKd
The value called pKd is obtained by taking minus log10 of the concentration in mol/L.

Which pKd is listed for 40617p1.2.B4 (scFv, V domains shown) VH: EVQLLESGGGFVQPGGSLRLSCAASGFTFTNYVMNWVRQAPGKGLEWVSSISISGGRYTWYADSVKGRFTISRDNSRNTLYLQMNSLRAEDTAIYYCAREMNTYSFPMDVWGQGTTVTVSS VL: EIVLTQSPGTLSLSPGERATLNCRASQNVRSDLAWYQQKPGQAPRLLIYDASNRATGIPDRFSGSGSGTDFSLTISRLEPEDFAVYYCQQYYDWPPYTFGGGTKVEIK ?
6.83

Which pKd is listed for 40769p1.1.A2 (scFv, V domains shown) VH: EVQLLESGGGLVQPGGSLRLSCAASGFLFDDYGMSWVRQAPGKGLEWVSAISYKGGSTYYADSVKGRFTISRDNSKNTLYLQMSSLRAEDTAVYYCAKDHKWNYYGMDVWGQGTTVTVSS VL: QSVLTQPPSASGTPGQRVTISCSGSTSNIGNDNYVSWYQQLPGTAPRLLIYKDDQRPSGVPDRFSGSKSGTSASLAISGLQSEDEADYYCGTWDDRLNAWVFGGGTKLTVL ?
9.14

Which pKd is listed for 40596p1.E4 (scFv, V domains shown) VH: EVQLLESGGGLVQPGGSLRLSCAASGFDFSGSAMSWVRQAPGKGLEYVAGLGWSGSFIYYADSVKGRSTISRDNSKNTLYLQLNSLRAEDTAVYYCARNPGFGEMDVWGQGTTVTVSS VL: EIVLTQSPGSLSLSPGERATLSCRASQTVGSNLAWYQQKPGQAPRLLIYGASTRATDIPDRFSGSGSGTEFTLTISSLQSEDFAVYYCQQYNSWPPLTFGGGTKVEIK ?
6.83

Source listed as patent US20220306762A1.
